melting point reference

Check out these entries, answers already filled in.
Please report the recorded melting point for NC(=O)C1=C(O)c2ccccc2S(=O)(=O)N1Cc1cccc(F)c1 [Compound 13k] . 271 to 275 °C

Same thing, different molecule: Cc1ccccc1CN1C(C(N)=O)=C(O)c2ccccc2S1(=O)=O [Compound 13e] 268 to 271 °C

Please give the result for NC(=O)C1=C(O)c2ccccc2S(=O)(=O)N1Cc1ccccc1F [Compound 13j] too. 268 to 273 °C

Please answer likewise for NC(=O)C1=C(O)c2ccccc2S(=O)(=O)N1Cc1ccc([N+](=O)[O-])cc1 [Compound 13m] 288 °C (dec.)

Same for `NC(=O)C1=C(O)c2ccccc2S(=O)(=O)N1` 244 °C (dec.)

***
// returns reported melting point for input NC(=O)C1=C(O)c2ccccc2S(=O)(=O)N1Cc1ccccc1 [Compound 13c] 270 to 275 °C

Same read-out for COc1cccc(CN2C(C(N)=O)=C(O)c3ccccc3S2(=O)=O)c1 [Compound 13f] ? 273 to 275 °C

Next up: NC(=O)C1=C(O)c2ccccc2S(=O)(=O)N1CC1CCCCC1 [Compound 13b] 263 to 264 °C
